- systemUnderTest: T1, monomeric human CSF1R ectodomain protein (human, UniProt P07333 20-517)
- T1 construct: also called biotinylated monomeric human CSF1R
- experimentalProtocol: SPR Biacore, IgG captured, monomeric CSF1R analyte
Recorded kon by entry
Field: numeric (M⁻¹ s⁻¹). Do not append units.

Data request: Supply kon value. Item: MH5 (antibody, human IgG4, V domains shown, Designer (maximally humanized) clone; tested as human IgG4(S228P)/Ckappa IgG; also called mAb-2) VH: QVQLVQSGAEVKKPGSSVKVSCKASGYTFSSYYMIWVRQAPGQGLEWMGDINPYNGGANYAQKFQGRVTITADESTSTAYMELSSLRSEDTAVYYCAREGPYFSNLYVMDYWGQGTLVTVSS VL: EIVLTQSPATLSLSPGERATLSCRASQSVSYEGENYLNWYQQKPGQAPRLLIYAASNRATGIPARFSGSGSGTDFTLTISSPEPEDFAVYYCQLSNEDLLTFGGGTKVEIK
Data returned: 1.7e+06

Data request: Supply kon value. Item: MH25 (antibody, human IgG4, V domains shown, Deimmunized MH5 derivative, human IgG4(S228P)/Ckappa IgG) VH: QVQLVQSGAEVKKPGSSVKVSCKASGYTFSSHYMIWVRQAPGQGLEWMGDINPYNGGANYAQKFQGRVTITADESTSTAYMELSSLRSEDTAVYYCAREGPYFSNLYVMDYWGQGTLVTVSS VL: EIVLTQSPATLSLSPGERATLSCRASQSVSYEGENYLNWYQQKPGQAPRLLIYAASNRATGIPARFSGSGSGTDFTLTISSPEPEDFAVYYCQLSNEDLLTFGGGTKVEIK
Data returned: 1.45e+06

Data request: Supply kon value. Item: MH12 (antibody, human IgG4, V domains shown, Deimmunized MH5 derivative, human IgG4(S228P)/Ckappa IgG; also called mAb-4) VH: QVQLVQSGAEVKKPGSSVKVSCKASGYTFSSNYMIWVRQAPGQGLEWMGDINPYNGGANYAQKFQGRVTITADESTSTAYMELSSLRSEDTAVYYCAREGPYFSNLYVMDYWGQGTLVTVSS VL: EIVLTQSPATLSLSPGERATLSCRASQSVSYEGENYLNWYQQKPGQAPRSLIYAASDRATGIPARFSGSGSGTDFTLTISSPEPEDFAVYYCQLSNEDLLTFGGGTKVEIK
Data returned: 2.43e+06

Data request: Supply kon value. Item: MH10 (antibody, human IgG4, V domains shown, Deimmunized MH5 derivative, human IgG4(S228P)/Ckappa IgG) VH: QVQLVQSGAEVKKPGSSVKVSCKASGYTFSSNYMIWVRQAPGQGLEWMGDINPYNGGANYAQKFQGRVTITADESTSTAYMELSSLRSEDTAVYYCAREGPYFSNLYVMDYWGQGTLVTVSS VL: EIVLTQSPATLSLSPGERATLSCRASQSVSYEGENYLNWYQQKPGQAPRSAIYAASNRATGIPARFSGSGSGTDFTLTISSPEPEDFAVYYCQLSNEDLLTFGGGTKVEIK
Data returned: 1.41e+06

Entry source: patent US20210301026A1
